System: Uromyces phaseoli
Assay: Spore germination test
Type: cell-based
Details: UP, 40 ppm, 48 hours
METRIC NAME: Spore Germination Rating

# annotated cases, reported Spore Germination Rating shown
>>> reported_result("O=c1c(Cl)nsnc1Oc1cccc(Cl)c1Cl [Compound 19]")
"0 (0-10)"
>>> reported_result("Cc1cccc(C)c1Oc1nsnc(Cl)c1=O [Compound 24]")
"0 (0-10)"
>>> reported_result("Cc1cc(C)cc(Oc2nsnc(Cl)c2=O)c1 [Compound 25]")
"0 (0-10)"
>>> reported_result("O=c1c(Cl)nsnc1Oc1ccc(O)cc1 [Compound 35]")
"0 (0-10)"

For Cc1ccc(Oc2nsnc(Cl)c2=O)cc1 [Compound 3] on Uromyces phaseoli, measured Spore Germination Rating was 0 (0-10)

For O=c1c(Cl)nsnc1Oc1cccc(C(F)(F)F)c1 [Compound 44] on Uromyces phaseoli, measured Spore Germination Rating was 0 (0-10)

For O=c1c(Cl)nsnc1Oc1ccccc1Br [Compound 34] on Uromyces phaseoli, measured Spore Germination Rating was 0 (0-10)

For CC(=O)c1ccc(Oc2nsnc(Cl)c2=O)cc1 [Compound 47] on Uromyces phaseoli, measured Spore Germination Rating was 0 (0-10)

For O=c1c(Cl)nsnc1Oc1ccc([N+](=O)[O-])cc1Cl [Compound 53] on Uromyces phaseoli, measured Spore Germination Rating was 0 (0-10)

For COc1ccc(Cl)c(Oc2nsnc(Cl)c2=O)c1 [Compound 51] on Uromyces phaseoli, measured Spore Germination Rating was 0 (0-10)

For O=c1c(Cl)nsnc1Oc1ccc(F)cc1 [Compound 11] on Uromyces phaseoli, measured Spore Germination Rating was 0 (0-10)

For CCCCOc1ccc(Oc2nsnc(Cl)c2=O)cc1 [Compound 6] on Uromyces phaseoli, measured Spore Germination Rating was 0 (0-10)

For N#CCc1ccc(Oc2nsnc(Cl)c2=O)cc1 [Compound 46] on Uromyces phaseoli, measured Spore Germination Rating was 0 (0-10)
